SUBJECT_OF_TEST: NCR247_reduced
ASSAY: UV/vis difference-spectroscopic titration of peptide (10 or 20 uM) with heme (0.4-40 uM) in 100 mM HEPES pH 7.0 after 30 min incubation at room temperature, one binding site.
Procedure: Heme binding to the NCR247 parent peptide and its analogues was assessed using UV/vis spectroscopy (Table S2) following an earlier established experimental set‐up,[27, 30, 31, 32] with heme (0.4 to 40 μM) titrated to NCR247 peptide (20 μM) in 100 mM HEPES buffer (pH 7.0). […] Figure 4 Heme‐binding analysis of NCR247 peptides. […] The complex formation was analysed after incubating it for 30 min at room temperature. […]
QUANTITY: Kd (nM)

                                   molecule  observed_value
0  C=CC1=C(C)c2cc3[nH]c(cc4nc(cc5[nH]c(cc1n2)c(C)c5CCC(=O)O)C(CCC(=O)O)=C4C)c(C)c3C=C.[Fe+3] [heme]            2270

* * *

SUBJECT_OF_TEST: NCR247_1-2,3-4
Construct: synthetic 24mer, oxidized isomer, disulfides Cys4-Cys10 and Cys15-Cys21
ASSAY: UV/vis difference-spectroscopic titration of peptide (10 or 20 uM) with heme (0.4-40 uM) in 100 mM HEPES pH 7.0 after 30 min incubation at room temperature, one binding site.
QUANTITY: Kd (nM)

>>> print(df.to_string())
                                 cpd_smiles  quantity_unit  observed_value
0  C=CC1=C(C)c2cc3[nH]c(cc4nc(cc5[nH]c(cc1n2)c(C)c5CCC(=O)O)C(CCC(=O)O)=C4C)c(C)c3C=C.[Fe+3]             nM            2980

* * *

SUBJECT_OF_TEST: NCR247_1-3,2-4
Construct: synthetic 24mer, oxidized isomer, disulfides Cys4-Cys15 and Cys10-Cys21
ASSAY: UV/vis difference-spectroscopic titration of peptide (10 or 20 uM) with heme (0.4-40 uM) in 100 mM HEPES pH 7.0 after 30 min incubation at room temperature, one binding site.
pKd: −log10 of the molar value.
QUANTITY: pKd

In [3]: df
Out[3]:
                                 cpd_smiles  quantity  observed_value
0  C=CC1=C(C)c2cc3[nH]c(cc4nc(cc5[nH]c(cc1n2)c(C)c5CCC(=O)O)C(CCC(=O)O)=C4C)c(C)c3C=C.[Fe+3]       pKd            5.68

* * *

SUBJECT_OF_TEST: MBP (Escherichia coli)
QUANTITY: Kd

                                 cpd_smiles         subject_of_test  quantity  observed_value
0  C=CC1=C(C)c2cc3[nH]c(cc4nc(cc5[nH]c(cc1n2)c(C)c5CCC(=O)O)C(CCC(=O)O)=C4C)c(C)c3C=C.[Fe+3]  MBP (Escherichia coli)        Kd          7.2 µM

* * *

SUBJECT_OF_TEST: NCR247_reduced
ASSAY: UV/vis difference-spectroscopic titration of peptide (10 or 20 uM) with heme (0.4-40 uM) in 100 mM HEPES pH 7.0 after 1 min incubation, evaluated near 428 nm for one binding site.
QUANTITY: Kd

>>> df
                                 cpd_smiles  observed_value
0  C=CC1=C(C)c2cc3[nH]c(cc4nc(cc5[nH]c(cc1n2)c(C)c5CCC(=O)O)C(CCC(=O)O)=C4C)c(C)c3C=C.[Fe+3]         1.44 µM
